Values from the supplement of paper PMC9112550

system: Escherichia coli TOP10; experiment: shrunken log2 fold change of peptide-encoding DNA abundance (4.5 h post-induction vs induction); higher = less antimicrobial activity (less host growth inhibition); settings: time post-induction: 4.5 h; library: site-saturation at positions 5, 18, 19, 20;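 note: peptides expressed intracellularly from a pBAD plasmid library in pooled LB shake-flask culture, induced with 0.3% L-arabinose, DNA abundance read by NGS, three biological replicates, DESeq2 with apeglm shrinkage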
Classification field: y = shrunken log2 fold change at or over -0.1; n = shrunken log2 fold change under -0.1.

stdin: Decide: shrunken log2 fold change of RRIRPRPPRLPRPRPRPEPLPRP >= -0.1?
stdout: y

stdin: Decide: shrunken log2 fold change of RRIRLRPPRLPRPRPRPAKFPRP >= -0.1?
stdout: y

stdin: Decide: shrunken log2 fold change of RRIRDRPPRLPRPRPRPAPHPRP >= -0.1?
stdout: y

stdin: Decide: shrunken log2 fold change of RRIRVRPPRLPRPRPRPIEIPRP >= -0.1?
stdout: y

stdin: Decide: shrunken log2 fold change of RRIRGRPPRLPRPRPRPIAKPRP >= -0.1?
stdout: y
